Answer each item with its documented pKd.
# SYSTEM: T1, PHF-tau (paired helical filament tau isolated from Alzheimer's disease brain) (human, UniProt P10636-8 2-441, limits assumed, hyper-phosphorylated, aggregated; sites not listed for the preparation)
# T1 construct: also called enriched PHF-tau; ePHF-tau
# T1 sequence (P10636 other isoform, or with tags, fused parts or gaps limits assumed): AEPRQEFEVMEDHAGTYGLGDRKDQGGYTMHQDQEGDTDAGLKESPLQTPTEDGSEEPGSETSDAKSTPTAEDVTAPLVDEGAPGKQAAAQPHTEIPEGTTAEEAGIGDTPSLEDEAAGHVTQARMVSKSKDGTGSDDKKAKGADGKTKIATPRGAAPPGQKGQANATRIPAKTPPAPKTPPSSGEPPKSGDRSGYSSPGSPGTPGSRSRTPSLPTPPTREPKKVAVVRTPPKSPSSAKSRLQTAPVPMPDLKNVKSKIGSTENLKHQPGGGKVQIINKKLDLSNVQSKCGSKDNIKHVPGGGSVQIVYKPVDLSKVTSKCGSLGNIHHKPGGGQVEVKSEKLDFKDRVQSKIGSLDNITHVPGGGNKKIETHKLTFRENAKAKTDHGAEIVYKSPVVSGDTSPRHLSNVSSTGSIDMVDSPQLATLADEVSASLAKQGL
# TEST PROTOCOL: SPR ProteOn, PHF-tau capture-coupled via HT7, 1:1 model
Numbers only, as −log10 of the molar value.

Here's what some known entries look like.
B330 (Fab of B711) (Fab, V domains shown, the Fab's constant parts and tag are not described; also called M330; M333 (the Fab of B711)) VH: QVQLVESGGGVVQPGRSLRLSCAASGFTFTSYAMSWVRQAPGKGLEWVASITKGGNTYYADSVKGRFTISRDNSKNTLYLQMNSLRAEDTAVYYCARGWGIYGWFAYWGQVTLVTVSS VL: DIQMTQSPSSLSASVGDRVTITCKASQDINRWLNWFQQKPGKAPKSLIYRANRLLDGVPSRFSGSGSGTDFTLTISSLQPEDFATYYCLQYDEFPLTFGQGTKLEIK :: 10.81
B324 (Fab of B296) (Fab, V domains shown, also called M324; B296 Fab) VH: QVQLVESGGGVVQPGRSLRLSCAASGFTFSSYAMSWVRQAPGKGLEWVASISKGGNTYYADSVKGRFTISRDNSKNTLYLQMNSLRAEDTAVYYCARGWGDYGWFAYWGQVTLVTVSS VL: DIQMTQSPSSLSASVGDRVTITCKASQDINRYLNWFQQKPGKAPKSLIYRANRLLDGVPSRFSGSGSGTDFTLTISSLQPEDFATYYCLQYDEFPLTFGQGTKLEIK :: 10.20

[ask] Recorded pKd of B332 (Fab of B809) (Fab, V domains shown) VH: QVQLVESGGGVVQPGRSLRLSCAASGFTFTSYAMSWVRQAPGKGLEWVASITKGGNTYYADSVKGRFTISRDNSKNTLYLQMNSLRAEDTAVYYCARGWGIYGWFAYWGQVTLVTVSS VL: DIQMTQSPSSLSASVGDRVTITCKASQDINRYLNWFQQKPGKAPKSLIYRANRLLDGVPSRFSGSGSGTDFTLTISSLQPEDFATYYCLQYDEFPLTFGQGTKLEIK , please.
[reply] 10.59
